Answer each item with its documented Absorbance at 577 nm.
format: physicochemical
One number for each entry.

# Cpd smiles, Experimental value
records = [
    ("Cc1ccc2cc3cc4cc5cc(C)ccc5cc4cc3cc2c1", 0.021),
    ("Cc1ccc2cc3cc4cc5ccc(C)cc5cc4cc3cc2c1", 0.035),
    ("CCCCCCc1ccc2cc3cc4cc5cc(CCCCCC)ccc5cc4cc3cc2c1", 0.987),
    ("CCCCCCCCCc1ccc2cc3cc4cc5cc(CCCCCCCCC)ccc5cc4cc3cc2c1", 1.398),
    ("c1ccc2cc3cc4cc5ccccc5cc4cc3cc2c1", 0.146),
]

Next up:
The compound CCCCCCCCCCCCc1ccc2cc3cc4cc5cc(CCCCCCCCCCCC)ccc5cc4cc3cc2c1 showed Absorbance at 577 nm equal to 0.061
